Test system: MDCK
Assay: Efflux ratio of permeability from basolateral to apical over apical to basolateral side in MDCK cells expressing human MDR1
Details: dog

{"Molecule": "Cc1cc(-c2ccc3c(c2)CC[C@H]3N2CC3(CCN(C(=O)Cc4cn5cc(C)sc5n4)CC3)C2)ncn1 [PF-5190457]", "Qualifying sign": "=", "Ratio": 7.2}
{"Molecule": "COc1ccc(CC(=O)N2CCC3(CC2)CN([C@@H]2CCc4cc(-c5ccncn5)ccc42)C3)nc1", "Qualifying sign": "=", "Ratio": 5.4}
{"Molecule": "Cc1cn2cc(CC(=O)N3CCC4(CC3)CN([C@@H]3CCc5cc(-c6ccc(C(N)=O)nc6)ccc53)C4)nc2s1", "Qualifying sign": ">", "Ratio": 18.2}
{"Molecule": "Cc1cn2cc(CC(=O)N3CCC4(CC3)CN([C@@H]3CCc5cc(-c6ncccn6)ccc53)C4)nc2s1", "Qualifying sign": "=", "Ratio": 5.4}
{"Molecule": "COc1ccc(CC(=O)N2CCC3(CC2)CN([C@@H]2CCc4cc(-c5nccc(C)n5)ccc42)C3)nc1", "Qualifying sign": "=", "Ratio": 3.7}

Values were extracted from ChEMBL document CHEMBL3286150.
